Measurement Context: 295.15 K; 101.33 kPa; Liquid; Vibrating tube method
Endpoint: mass density (kg/m3)
Provide only the numeric value, understood in kg/m3.

| Compound | Endpoint | Measurement Units | Readout Value |
| --- | --- | --- | --- |
| CCCC(=O)[O-].C[NH2+]CCO [N-methyl-2-hydroxyethylammonium butanoate] | mass density | kg/m3 | 1041.29 |
| CC(=O)[O-].C[NH2+]CCO [N-methyl-2-hydroxyethylammonium acetate] | mass density | kg/m3 | 1102.59 |
| CCC(=O)[O-].C[NH2+]CCO [2-hydroxy-N-methylethanaminium propionate] | mass density | kg/m3 | 1073.18 |

QUERY: Find the recorded mass density belonging to C[NH2+]CCO.O=C[O-] [2-hydroxy-N-methylethanaminium formate] and report it.
RESULT: 1129.92

QUERY: Can you check CC(C)C(=O)[O-].C[NH2+]CCO [2-hydroxy-N-methylethanaminium isobutyrate] next?
RESULT: 1045.27

QUERY: Can you check CCCCC(=O)[O-].C[NH2+]CCO [2-hydroxy-N-methylethanaminium pentanoate] next?
RESULT: 1018.25

====

Measurement Context: 324.9 K; 101.33 kPa; Liquid; Vibrating tube method
Endpoint: mass density (kg/m3)
Provide only the numeric value, understood in kg/m3.

Some solved entries appear below for comparison.
| Compound | Endpoint | Readout Value |
| --- | --- | --- |
| CC(C)C(=O)[O-].C[NH2+]CCO [2-hydroxy-N-methylethanaminium isobutyrate] | mass density | 1025.86 |
| CCC(=O)[O-].C[NH2+]CCO [2-hydroxy-N-methylethanaminium propionate] | mass density | 1053.64 |
| CC(=O)[O-].C[NH2+]CCO [N-methyl-2-hydroxyethylammonium acetate] | mass density | 1084.53 |
| C[NH2+]CCO.O=C[O-] [2-hydroxy-N-methylethanaminium formate] | mass density | 1113.38 |
| CCCCC(=O)[O-].C[NH2+]CCO [2-hydroxy-N-methylethanaminium pentanoate] | mass density | 998.022 |

Here is the next item to consider.
QUERY: Find the recorded mass density belonging to CCCC(=O)[O-].C[NH2+]CCO [N-methyl-2-hydroxyethylammonium butanoate] and report it.
RESULT: 1021.04

====

Measurement Context: 337.9 K; 101.33 kPa; Liquid; Pulse-echo method
Numbers after ± are expanded uncertainties.
Endpoint: speed of sound
The reply should consist of the numeric value with the unit placed after it.

| Molecule | speed of sound |
| --- | --- |
| CCC(=O)[O-].C[NH2+]CCO [2-hydroxy-N-methylethanaminium propionate] | 1571.3 ± 2.1 m/s |

QUERY: Find the recorded speed of sound belonging to C[NH2+]CCO.O=C[O-] [2-hydroxy-N-methylethanaminium formate] and report it.
RESULT: 1738.9 ± 2.2 m/s

QUERY: Can you check CC(C)C(=O)[O-].C[NH2+]CCO [2-hydroxy-N-methylethanaminium isobutyrate] next?
RESULT: 1498.3 ± 2.1 m/s

QUERY: Can you check CCCC(=O)[O-].C[NH2+]CCO [N-methyl-2-hydroxyethylammonium butanoate] next?
RESULT: 1490 ± 2.1 m/s

QUERY: Can you check CCCCC(=O)[O-].C[NH2+]CCO [2-hydroxy-N-methylethanaminium pentanoate] next?
RESULT: 1426.3 ± 2.1 m/s

====

Measurement Context: 312.91 K; 101.33 kPa; Liquid; Pulse-echo method
Endpoint: speed of sound (m/s)
Provide only the numeric value, understood in m/s.

Some solved entries appear below for comparison.
| Molecule | speed of sound / m/s |
| --- | --- |
| CCCCC(=O)[O-].C[NH2+]CCO [2-hydroxy-N-methylethanaminium pentanoate] | 1503 |
| CCC(=O)[O-].C[NH2+]CCO [2-hydroxy-N-methylethanaminium propionate] | 1646.5 |
| CCCC(=O)[O-].C[NH2+]CCO [N-methyl-2-hydroxyethylammonium butanoate] | 1568.3 |
| C[NH2+]CCO.O=C[O-] [2-hydroxy-N-methylethanaminium formate] | 1786.6 |

Here is the next item to consider.
QUERY: Find the recorded speed of sound belonging to CC(C)C(=O)[O-].C[NH2+]CCO [2-hydroxy-N-methylethanaminium isobutyrate] and report it.
RESULT: 1569.7
